System: PfNDH2 (Plasmodium falciparum, UniProt Q8I302)
Construct: gene PF3D7_0915000; recombinant, heterologously expressed; Escherichia coli crude membrane preparation
Sequence (Q8I302 34-533): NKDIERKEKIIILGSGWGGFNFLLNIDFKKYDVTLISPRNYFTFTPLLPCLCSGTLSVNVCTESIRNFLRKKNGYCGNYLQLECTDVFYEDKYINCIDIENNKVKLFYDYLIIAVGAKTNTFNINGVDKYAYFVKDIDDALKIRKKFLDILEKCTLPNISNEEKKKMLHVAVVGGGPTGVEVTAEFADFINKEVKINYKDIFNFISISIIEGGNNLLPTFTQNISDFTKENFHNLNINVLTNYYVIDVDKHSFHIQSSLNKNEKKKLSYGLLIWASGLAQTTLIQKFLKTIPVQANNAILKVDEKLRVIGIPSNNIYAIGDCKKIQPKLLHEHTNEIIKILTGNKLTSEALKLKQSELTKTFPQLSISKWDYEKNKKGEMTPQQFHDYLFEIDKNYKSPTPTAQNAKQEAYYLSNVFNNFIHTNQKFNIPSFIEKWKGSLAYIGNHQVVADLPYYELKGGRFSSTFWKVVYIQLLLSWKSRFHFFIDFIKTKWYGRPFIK
Experiment summary: spectrophotometric NADH:quinone oxidoreductase assay ([…] and […] nm)
Assay type: biochemical
Test parameters: read-out: Percentage inhibition / PfNDH2
Measure name: inhibition at 1 µM (%)
Answer in %, number only, no unit symbol.

>  <Molecule>
CN1CCN(C2CCN(C(=O)CC3CCC4(CC3)OOC3(OO4)C4CC5CC(C4)CC3C5)CC2)CC1 (centres unmarked)

>  <Result>
12.3

$$$$
>  <Molecule>
C[C@@H]1CC[C@H]2[C@@H](C)C(=O)O[C@@H]3O[C@@]4(C)CC[C@@H]1[C@]32OO4

>  <Result>
17.1

$$$$
>  <Molecule>
C[C@H]1[C@H](OC(=O)CCC(=O)O)O[C@@H]2O[C@@]3(C)CC[C@H]4[C@H](C)CC[C@@H]1[C@@]24OO3 [Artesunate]

>  <Result>
3.7

$$$$
>  <Molecule>
C[C@@H]1CC[C@H]2[C@@H](C)C(O)O[C@@H]3O[C@@]4(C)CC[C@@H]1[C@]32OO4 (some centres unmarked) [Dihydroartemisinin]

>  <Result>
5

$$$$

Req: Param readout = inhibition at 1 µM; param system = PfNDH2 (Plasmodium falciparum, UniProt Q8I302); param query = "CO[C@H]1O[C@@H]2O[C@@]3(C)CC[C@H]4[C@H](C)CC[C@@H]([C@H]1C)[C@@]24OO3" ; response: value
Resp: 4.1
